tested on: BT-549 breast; test: NCI-60 one-dose screen, 48 h (100 = growth as untreated, 0 = no growth, -100 = all killed); settings: 10 µM unless noted
The panel holds about 83,000 compounds, 20% with a hit somewhere; the sample as a whole holds those more often.
Give growth for every item shown.
# unit: % | format: bare number

Fill in: growth of CCO/C=N/NC(=O)c1ccncc1 is ___
114

Now the molecule CC[C@]1(O)C[C@@H]2CN(Cc3c([nH]c4ccccc34)[C@@](C(=O)OC)(c3cc4c(cc3OC)N(C)[C@H]3[C@@](O)(C(=O)OC)[C@H](OC(C)=O)[C@]5(CC)[C@@H]6C[C@@H]6CN6CC[C@]43[C@@H]65)C2)C1
-23.1

// next record O=C(Nc1ccc(Br)c(Cl)c1)c1cc(F)ccc1O
-39

Now this one: CCC1=C[C@@H]2CN(C1)Cc1c([nH]c3ccccc13)[C@@](C(=O)OC)(c1cc3c(cc1OC)N(C=O)[C@H]1[C@@](O)(C(=O)OC)[C@H](OC(C)=O)[C@]4(CC)[C@@H]5C[C@@H]5CN5CC[C@]31[C@@H]54)C2
47.9

Request: O=[N+]([O-])c1c(S(=O)(=O)O)cc2cc(S(=O)(=O)O)ccc2c1[N+](=O)[O-]
104

Now consider COc1ccc(/C=C2\CCCC3=C2NC(C)=NC3c2ccc(OC)c(OC)c2)cc1OC (stereo unspecified) and answer again.
-16.1

What do you get for O=S=Nc1ccc([N+](=O)[O-])cc1 ?
91.8

Try this molecule next: CCC(=O)Nc1ccccc1C#C/C=C\C#Cc1ccccc1SC
71.6

Now this one: N#Cc1ccc(NC(=O)c2ccc3cccnc3c2O)cc1
27.7

Entry COc1ccc(-n2cnc3c(sc4ncc(Cl)cc43)c2=O)cc1 please
94.9

For CCC(c1cccc(Br)c1)C(C(=O)O)c1ccc(OC)cc1 (stereo unspecified) then?
113

Consider next the molecule COc1ccc(Cn2cc(COc3cc(/C=C/C(=O)c4cc(OC)c(OC)c(OC)c4)ccc3OC)nn2)cc1 in the same way.
30.8

CCCCCCOc1ccc(C2(Cl)c3ccccc3N(C)c3ccccc32)cc1 ?
86.5

Then this molecule: COc1ccc(C(=O)N2CCN(C(=O)c3cc(OC)c(OC)c(OC)c3)CC2)cc1OCCCCOc1cc2c(cc1OC)C(=O)N1CCC[C@H]1C=N2
115

Queued: O=C(CNc1c(Cl)cccc1Cl)Nc1ccc(-c2nc3ccccc3s2)cc1
22

Same for NS(=O)(=O)c1ccc(NCC(=O)Nc2ccc(-c3nc4ccccc4s3)cc2)cc1
14.5

Also, O=C1Nc2cc(Cl)ccc2Oc2cc(Oc3ccccc3)ccc21 please.
56.4

Also, CC(C)(C)c1ccc(S(=O)(=O)Oc2ccc3c4c(c(=O)oc3c2)CCCCC4)cc1 please.
46.6

Try this molecule too: O=C(O)C(Cc1ccccc1)N1C(=O)/C(=C/C(Cl)=C/c2ccc([N+](=O)[O-])cc2)SC1=S (stereo unspecified)
-28.1

Now consider COc1cccc(-c2nc3sccn3c2-c2ccnc(NCCCNS(=O)(=O)c3ccc(F)cc3)n2)c1 .
29.6

// repeat for CCOC(=O)/C=C\C(=O)NC(N)=O and report
100

One more molecule: O=S(=O)(NCCCNc1cc(-c2cn(-c3ccccc3)nc2-c2cccc(O)c2)ccn1)c1ccc(C(F)(F)F)cc1
42.2

And what about the molecule COc1cc(C(=O)/C=C/c2cc(C(=O)c3cc(OC)c(OC)c(OC)c3)ccc2OC)ccc1N ?
-51.3

Okay, and COc1ccc(/C(=N/O)c2cc(F)c(F)c(OC)c2F)cc1O ?
33.5

Another molecule to check: Nc1c(C(=O)Nc2cccc(C(F)(F)F)c2)sc2nc3c(cc12)C(O)CCC3 (stereo unspecified)
52.9

Continue with CCCCOc1nc2c(C)cccc2cc1C1CNC(=O)c2ccccc2N1 (stereo unspecified)
74.5

====

Kindly supply the reported growth values for the records listed here.
test system: MCF7 breast; assay: NCI-60 one-dose screen, 48 h (100 = growth as untreated, 0 = no growth, -100 = all killed); details: 10 µM unless noted
This is part of a sample that, as a whole, favours compounds with a hit. Of some 83,000 tested, about 20% had one in any assay.
Give just the numeric value; % need not be written.

Please give the measured growth for this compound: Cc1cccc(NC(=O)c2sc3nc4c(cc3c2N)CCC4)c1C
13

How about Cc1nn(-c2ccc(Cl)cc2)c(=O)n1CCOc1ccccc1Cl ?
98.3

Then what about the compound CC1=NN2C(=NC3=C(CCC/C3=C\c3ccc(Cl)cc3)C2c2ccc(Cl)cc2)S1 (stereo unspecified) ?
24.2

Follow-up item: Clc1ccc2c(c1)NC1(CCSc3ccccc31)n1nccc1-2 (stereo unspecified)
102

Check COc1ccc(Cn2c(SC)nc(=O)n(Cc3ccc(Cl)cc3)c2=O)cc1 too.
92

And CC(C)C[C@H](NC(=O)[C@@H](Cc1ccccc1)n1ccc(Nc2ccccc2)cc1=O)B(O)O ?
21.1

Do the same for c1cncc(CNc2ccccc2-c2nnc(Nc3ccc4c(c3)OCCO4)o2)c1 please
20.9

Entry Cc1oc2ncnc(Nc3ccccc3)c2c1C(=O)NCCO please
98.6

Another compound to check: C=CCN=C1NC(=O)/C(=C/c2cc(C(C)(C)C)c(O)c(C(C)(C)C)c2)S1
43.8

Repeat for the following compound: O=C(O)Cc1ccc2c(c1)Cc1cccnc1O2
94.6

Subsequent entry: COc1cc(OC)c(C(=O)/C=C/c2ccc(C(F)(F)F)cc2)c(OC)c1
19.7

Then COC1=CC(c2ccc[nH]2)=N/C1=C\c1[nH]c(C)c(C(=O)CCC(=O)Oc2ccc3c(c2)CCC2C3CC[C@]3(C)[C@@H](O)CC[C@@H]23)c1C (stereo partly specified) ?
13.6

Similarly, Clc1nc(-c2cccnc2)nc2sc3c(c12)CCCCCC3 ?
92.7

One more compound: O=C1NC(Cc2c[nH]c3ccccc23)C(=O)N1Cc1ccc(Cl)cc1 (stereo unspecified)
98

// same read-out, input: COc1ncc(-c2ccc3ncnc(Nc4cccc(Cl)c4)c3c2)cc1NS(=O)(=O)CCN1CCOCC1
7.16

Also need C=C1C(=O)O[C@H]2[C@H]1CC/C(COC(=O)NCc1cc(OC)c(OC)c(OC)c1)=C\CC[C@@]1(C)O[C@@H]21 , thanks.
17

COc1ccc(OC)c(-c2ccc(-c3ccccc3N)c3[nH]c4ccccc4c23)c1 , same question.
69.8

Also, CCC(=O)Oc1cc(/C=C/C(=O)O[C@H]2C[C@H]3CN4CCc5c([nH]c6cc(OC)ccc56)[C@@H]4C[C@@H]3[C@@H](C(=O)OC)[C@@H]2OC)ccc1OC please.
48.2

What do you have for O=C1c2ccccc2C(=O)c2c(N=Nc3sc(=O)[nH]c3S)cccc21 ?
72

What do you get for COC1=CC(c2ccc[nH]2)=N/C1=C\c1[nH]c(C)c(C(=O)CCCCC(=O)Nc2ccccc2)c1C ?
-85.7

Try this compound next: CCNc1nc(N2CC(=O)Nc3cc(OC)ccc32)c2ccccc2n1
3.09

Could you do the same for COc1ccc(/C=C/c2nc(N3CCOCC3)c3cc(F)c(F)cc3n2)cc1OC , please?
15.9

Next compound: CCC1CCc2nc3sc(C(=O)Nc4cccc(C)c4)c(N)c3cc2C1 (stereo unspecified)
18.7

Let us now turn to COc1ccc(-c2nc3sccn3c2-c2ccnc(NCCNS(=O)(=O)c3ccc(C(F)(F)F)cc3)n2)cc1
8.53

What about Cc1oc2nc[nH]c(=O)c2c1C(=O)/C=C/c1ccc(Cl)cc1 ?
15.4

And then CN(C)c1ccc(/C=C\N=Nc2ccc(Br)cc2)cc1 , what is it?
36.8

Now consider CC/C=C\C[C@H](O)C/C=C1/C(=O)C(Cl)=C[C@@H]1C/C=C\CCCC(=O)O and answer again.
26.3

COC12CC(=O)C(C(C)=O)=C(O)C1(C)c1c(O)c(C)c(O)c(C(C)=O)c1O2 (stereo unspecified) , same question.
80.9

Try C[N+](C)(C)c1ccc(CC2c3ccccc3-c3ccccc32)cc1 next.
84.1

Check COC(=O)c1cc(-c2cccs2)c(C#N)c(N)c1C#N too.
67.7

Input O=S(=O)(NCCNc1cc(-c2cn(-c3ccccc3)nc2-c2ccccc2)ccn1)c1cccc2ccccc12
28.2

Now the compound Nc1c(C(=O)c2ccc(F)cc2)sc2nc3c(cc12)CCCC3
80.4

What do we get for O=S=Nc1ccc([N+](=O)[O-])cc1 ?
95.7

// repeat for Cc1ccc(-c2csc3nc(C)c(CCCl)c(=O)n23)cc1 and report
78.3

Then what about the compound NCCSC(c1ccccc1)(c1ccccc1)c1ccccc1 ?
2.6

And CC(C)(C)OC(=O)N[C@@H](Cc1ccccc1)C(=O)N(Cc1ccccc1)C1(C(=O)NCc2ccccc2)CCN(Cc2ccccc2)CC1 ?
25.2
